Assembled from different publications: pIC50 for Rhodopsin kinase GRK1 (Homo sapiens, UniProt Q15835).
Molecular target: Rhodopsin kinase GRK1 (Homo sapiens, UniProt Q15835)
Sequence (Q15835 whole entry): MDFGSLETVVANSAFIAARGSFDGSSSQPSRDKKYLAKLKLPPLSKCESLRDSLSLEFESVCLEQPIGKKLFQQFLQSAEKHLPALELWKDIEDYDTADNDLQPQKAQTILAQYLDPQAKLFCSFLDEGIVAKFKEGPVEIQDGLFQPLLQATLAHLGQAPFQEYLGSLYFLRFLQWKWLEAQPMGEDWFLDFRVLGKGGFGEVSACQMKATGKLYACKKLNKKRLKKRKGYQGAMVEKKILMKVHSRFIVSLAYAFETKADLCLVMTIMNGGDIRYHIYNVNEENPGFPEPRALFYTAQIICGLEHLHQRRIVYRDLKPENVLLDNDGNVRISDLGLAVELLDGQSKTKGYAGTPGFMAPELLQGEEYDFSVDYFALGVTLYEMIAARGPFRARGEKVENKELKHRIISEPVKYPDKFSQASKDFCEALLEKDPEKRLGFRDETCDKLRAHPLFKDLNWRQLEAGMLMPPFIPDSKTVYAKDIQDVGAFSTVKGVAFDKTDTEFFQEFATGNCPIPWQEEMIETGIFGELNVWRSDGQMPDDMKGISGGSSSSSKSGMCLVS
pIC50: −log10 of the molar value.

Item: CC1=C(C(=O)Nc2ccc3[nH]ncc3c2)C(c2ccc(F)c(CCC(=O)N(CC(C)C)C(C)C)c2)NC(=O)N1 (stereo not given) | pIC50: < 4.00

Note to self: pIC50 recorded for CC#CCN(CCCC)C(=O)Cc1cc(C2NC(=O)NC(C)=C2C(=O)Nc2ccc3[nH]ncc3c2)ccc1F (stereo not given) was < 4.00

Form field pIC50, entry `CCc1cc(Nc2nc(N[C@@H](C)c3ccc(F)cn3)nc3cccc(OC)c23)n[nH]1` : 6.72

Just so you know, measured pIC50 for `CCc1cc(Nc2nc(NCc3ccc(Cl)cc3OC)nc3cccc(OC)c23)n[nH]1` came out at 7.28

The recorded pIC50 for CCCCCCC(C)NC(=O)c1cc(C2NC(=O)NC(C)=C2C(=O)Nc2ccc3[nH]ncc3c2)ccc1F (stereo not given) is < 4.00

Record CC1=C(C(=O)Nc2ccc3[nH]ncc3c2)C(c2ccc(F)c(C(=O)O)c2)NC(=O)N1 (stereo not given) . Reported pIC50: < 4.00

# pIC50 (molecule: CCC(C)CN(CCO)C(=O)Cc1cc(C2NC(=O)NC(C)=C2C(=O)Nc2ccc3[nH]ncc3c2)ccc1F (stereo not given) ) is < 4.00

So, CC1=C(C(=O)Nc2ccc3[nH]ncc3c2)C(c2ccc(F)c(CC(=O)N3Cc4ccc(C)cc4C3)c2)NC(=O)N1 (stereo not given) ? Its pIC50 was < 4.00

Briefly, pIC50 measured for COCCCC1CCCCN1C(=O)c1cc(C2NC(=O)NC(C)=C2C(=O)Nc2ccc3[nH]ncc3c2)ccc1F (stereo not given) : < 4.00

Reported pIC50 of CC1=C(C(=O)Nc2ccc3[nH]ncc3c2)C(c2ccc(F)c(CC(=O)NCc3c(C(F)(F)F)cccc3C(F)(F)F)c2)NC(=O)N1 (stereo not given) : < 4.00
